Biological target: 5-hydroxytryptamine receptor 2B (Homo sapiens)
Sequence (P41595 whole entry): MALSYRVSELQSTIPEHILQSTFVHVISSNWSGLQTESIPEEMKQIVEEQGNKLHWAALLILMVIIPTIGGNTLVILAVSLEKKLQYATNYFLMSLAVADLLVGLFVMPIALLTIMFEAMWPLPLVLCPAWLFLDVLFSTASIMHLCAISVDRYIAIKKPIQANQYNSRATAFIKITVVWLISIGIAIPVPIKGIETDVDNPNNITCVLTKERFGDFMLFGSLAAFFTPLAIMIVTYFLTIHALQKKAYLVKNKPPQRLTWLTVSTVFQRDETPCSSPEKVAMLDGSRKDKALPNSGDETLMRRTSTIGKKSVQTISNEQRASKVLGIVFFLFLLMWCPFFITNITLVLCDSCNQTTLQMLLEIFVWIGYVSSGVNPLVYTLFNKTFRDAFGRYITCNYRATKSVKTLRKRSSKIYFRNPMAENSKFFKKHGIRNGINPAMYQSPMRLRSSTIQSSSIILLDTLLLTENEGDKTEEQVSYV
Assay: Inhibition of 5-HT2B receptor (unknown origin)
measurement-name: pIC50
// pIC50 is dimensionless: -log10 of concentration (M)

Could you share which pIC50 value was measured for `COc1cc(/C=C/C(=O)NCCn2c(C(F)(F)F)cc3ccccc32)cc(OC)c1OC` ?
5.12

----------
Molecular target: Prostaglandin E2 receptor EP4 subtype (Homo sapiens, UniProt P35408)
Sequence (P35408 whole entry): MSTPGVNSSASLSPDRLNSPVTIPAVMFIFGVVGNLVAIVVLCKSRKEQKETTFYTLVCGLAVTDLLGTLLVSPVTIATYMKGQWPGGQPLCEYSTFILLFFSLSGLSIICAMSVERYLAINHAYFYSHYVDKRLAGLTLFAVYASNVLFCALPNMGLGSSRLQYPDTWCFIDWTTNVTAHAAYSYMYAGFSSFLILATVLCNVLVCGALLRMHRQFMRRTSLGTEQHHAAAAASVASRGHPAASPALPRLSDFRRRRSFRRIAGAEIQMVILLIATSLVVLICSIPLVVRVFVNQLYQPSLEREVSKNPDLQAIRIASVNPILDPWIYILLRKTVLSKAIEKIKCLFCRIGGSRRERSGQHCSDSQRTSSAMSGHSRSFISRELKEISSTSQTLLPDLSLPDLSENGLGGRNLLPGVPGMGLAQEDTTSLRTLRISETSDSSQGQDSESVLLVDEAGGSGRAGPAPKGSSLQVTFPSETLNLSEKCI
Assay: Antagonist activity at EP4 receptor (unknown origin) by functional cAMP assay
measurement-name: Ki

What measured Ki goes with `CC(C)Oc1ccc2c(=O)c3cc(C(=O)O)ccc3oc2c1` ?
> 100 µM

----------
Biological target: Prostacyclin receptor (Homo sapiens, UniProt P43119)
Sequence (P43119 whole entry): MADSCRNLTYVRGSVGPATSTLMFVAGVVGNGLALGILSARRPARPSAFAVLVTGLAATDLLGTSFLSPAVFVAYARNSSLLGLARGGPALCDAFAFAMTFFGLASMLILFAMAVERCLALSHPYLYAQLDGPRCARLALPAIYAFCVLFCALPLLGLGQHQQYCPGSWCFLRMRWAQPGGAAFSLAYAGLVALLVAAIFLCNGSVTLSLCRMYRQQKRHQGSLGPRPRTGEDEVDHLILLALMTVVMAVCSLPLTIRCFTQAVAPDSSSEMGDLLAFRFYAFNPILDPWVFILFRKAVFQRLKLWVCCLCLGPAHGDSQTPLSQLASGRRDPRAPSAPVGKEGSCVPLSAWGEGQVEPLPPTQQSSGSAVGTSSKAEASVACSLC
Experiment: Binding affinity to prostanoid IP receptor (unknown origin)
Kindly supply the reported Ki values for the records listed here.
Reply numerically in µM, unit not repeated.

Dear colleague, I am looking for the recorded Ki of the following molecule: `C=CCC1([C@@H](O)C/C=C/[C@@H]2[C@@H](C/C=C\CCCC(=O)O)[C@H](Cl)C[C@H]2O)CCC1`
10

Give the measured Ki of `CCC1([C@@H](O)C/C=C/[C@@H]2[C@@H](C/C=C\CCCC(=O)O)[C@H](Cl)C[C@H]2O)CCC1` .
10

# input molecule: `CCCC1([C@@H](O)C/C=C/[C@H]2[C@H](O)CC(=O)[C@@H]2CCCCCCC(=O)O)CCC1` ; wanted: its Ki
0.87
